Values from patent US6852740B2

assayed-system: human p38 kinase alpha (Homo sapiens, UniProt Q16539)
Construct: The coding region of the human p38a cDNA was obtained by PCR-amplification from RNA; made in house; host or cells: E. coli DH10B
Sequence (Q16539 whole entry): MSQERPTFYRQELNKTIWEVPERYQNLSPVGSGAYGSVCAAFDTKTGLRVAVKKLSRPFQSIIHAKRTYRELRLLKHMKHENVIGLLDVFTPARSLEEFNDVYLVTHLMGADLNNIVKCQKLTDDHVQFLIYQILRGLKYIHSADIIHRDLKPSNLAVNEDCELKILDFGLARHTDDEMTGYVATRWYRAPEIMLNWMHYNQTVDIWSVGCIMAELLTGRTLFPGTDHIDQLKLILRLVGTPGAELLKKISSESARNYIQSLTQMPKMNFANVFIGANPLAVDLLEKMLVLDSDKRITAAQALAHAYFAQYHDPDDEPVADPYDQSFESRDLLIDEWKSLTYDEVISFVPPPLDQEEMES
experimental-protocol: p38α in vitro kinase assay, EGFRP procedure
Assay type: biochemical
readout-type: IC50 (nM)

P = Cc1n[nH]c(/C=C/c2ccccc2)c1-c1ccncc1 [Example 1]
Q = Cc1n[nH]c(CCc2ccccc2)c1-c1ccncc1 [Example 2]
Q) Could you determine which record has the numerically smaller IC50? Candidates: P and Q # answer = label of selected item
A) P
(P: 660 nM, Q: 2800 nM)

---

System: TNF-α release by U937 cells
experimental-protocol: LPS stimulation of TNF production by U937 cells
Assay type: cell-based
study-conditions: Homo sapiens, U-937; LPS-stimulated differentiated U937 cells, TNF-α by ELISA after 4 hour incubation; read-out: TNF Cell IC50
readout-type: IC50 (µM)

1 = Cc1n[nH]c(CCc2ccccc2)c1-c1ccncc1
2 = Cc1n[nH]c(/C=C/c2ccccc2)c1-c1ccncc1
Q) Returns: the argument ( 1 or 2 ) having the larger IC50. # answer = label of selected item
A) 1
(1: 2.3 µM, 2: 0.6 µM)
